Measurement Target: HLA-A*24:02
Method Description: IEDB peptide-MHC binding, purified MHC/competitive/fluorescence; bounds were set here for any values at or beyond the usual limits of such assays
Setup Conditions: source organism: Plasmodium falciparum
Measured IC50, listed per entry for reference.
Numeric only. Scale: nM

Some sequences with recorded IC50:
| Chain | Attribute Measured | Reading |
| --- | --- | --- |
| YYRSSRGECI | IC50 | 175 |
| DFVIIPHYTF | IC50 | 289 |

Challenge: Tell us which IC50 value is on record for SYRYDISEEI
Response given: 363

Challenge: Supply IC50 value. Item: IKLNIWRTF
Response given: 1420

Challenge: State, in one line, measured IC50 of YLNKYVYTI
Response given: 135

Challenge: Return the recorded IC50 value; entry: PYISKYGNKL
Response given: 180

Challenge: Name the recorded IC50 of the sequence listed here: NFGRGQNYW
Response given: 228

Challenge: Note IC50 for the sequence shown: NYKLGVQYFF
Response given: 26300

Challenge: Respond only with IC50 recorded for LTIIYIHLF
Response given: 69500

Challenge: Output measured IC50 for this item: DMKNYGTNLF
Response given: 5300

Challenge: Supply IC50 value. Item: IYKRELYNI
Response given: 86.8

Challenge: Hello, please tell me recorded IC50 for this one: NYMGNPWTE
Response given: 37900

Challenge: Report measured IC50; entry is SYFTYDSEEY
Response given: 22300

Challenge: Find the measured IC50 of KLPLESSTI and report it.
Response given: 214

Challenge: Hello, please tell me recorded IC50 for this one: KYLFIPSHN
Response given: 6120

----------
Measurement Target: HLA-A*01:01
Method Description: IEDB peptide-MHC binding, purified MHC/competitive/fluorescence; bounds were set here for any values at or beyond the usual limits of such assays
Setup Conditions: source organism: Plasmodium falciparum
Attribute Measured: pIC50
Scale: pIC50 equals -log10([C]), with [C] in mol/L.

| Chain | pIC50 |
| --- | --- |
| NTNGIRYHY | 5.36 |
| ENDYAYLNKY | 4.38 |
| TSSLIKQNKY | 4.43 |
| FLDYYKHLSY | 6.19 |
| FNDVPIKMEY | 6.30 |

Now let's try a different one.
Challenge: Supply pIC50 value. Item: SIEIVERSNY
Response given: 4.92

----------
Measurement Target: HLA-B*07:02
Method Description: IEDB peptide-MHC binding, purified MHC/competitive/fluorescence; bounds were set here for any values at or beyond the usual limits of such assays
Setup Conditions: source organism: Plasmodium falciparum
pIC50: −log10 of the molar value.
Attribute Measured: pIC50

In the examples that follow, each entry is paired with its recorded pIC50.
| Chain | pIC50 |
| --- | --- |
| SPNDNINVT | 4.44 |
| RPYISKNDL | 6.61 |
| RPNDCESVL | 6.42 |
| LPSAKNNCEY | ≤ 4.00 |

Lab note: next sequence to report on.
Challenge: Please report the measured pIC50 for IPFHKKFISF tested on HLA-B*07:02.
Response given: 4.66

----------
Measurement Target: HLA-B*44:02
Method Description: IEDB peptide-MHC binding, purified MHC/competitive/fluorescence; bounds were set here for any values at or beyond the usual limits of such assays
Setup Conditions: source organism: Plasmodium falciparum
Attribute Measured: IC50

| Chain | Measurement Target | IC50 |
| --- | --- | --- |
| KEKFYKNNLY | HLA-B*44:02 | ≥ 919 µM |

Note: attention shifts to another entry.
Challenge: Consider the sequence NDVPIKMEYF and give its recorded IC50.
Response given: ≥ 100 µM

Numbers sourced from the Immune Epitope Database (IEDB).
